# System: Plasmodium falciparum Dd2 asexual blood stage parasites
# assay-info: microbe, parasite or virus in culture
# Set-up: species or system Plasmodium falciparum Dd2 in human erythrocytes; single determination (one 11-point concentration-response curve)
# condition-description: Plasmodium falciparum, DD2, Erythrocyte, 72 h; read-out: AC50
// NB: equality with 3 µM counts as No; only AC50 strictly below is Yes

INSERT INTO results (compound, class_assignment) VALUES
  ('CCCN(CCC)CC(O)Cn1cc(/C=C/C(=O)c2ccc(C)cc2)c2ccccc21 (centres unmarked)', 'No');

Problem: For the compound "COc1ccc(S(=O)(=O)N2CCC3(CC2)OCCN3S(=O)(=O)c2c(C)cc(C)cc2C)cc1" , is AC50 under 3 µM?
Solution: Yes

Problem: Entry "Cc1cccc(Nc2cc(C)c3c(O)cccc3n2)c1C" please
Solution: No

Problem: Entry "Clc1ccc(-c2nnc(N3CCCC3)nn2)cc1" please
Solution: Yes

Problem: Entry "CC(C)C[C@@H]1N[C@H](C(=O)NC(C)C)Cc2cn(Cc3ccncc3)c3cccc1c23" please
Solution: No

Problem: Entry "O=C(c1nnc(CNc2ccncc2)n1-c1ccccc1)N1CCC[C@@H]1C(c1ccccc1)c1ccccc1" please
Solution: No

Problem: Entry "O=C(NCCC1=CCCCC1)c1ccc2c(=O)n3nc(Nc4ccccc4)sc3nc2c1" please
Solution: No

Problem: Entry "Cc1ccc(/C=N/NC(=O)c2nnn(-c3nonc3N)c2-c2ccc3c(c2)OCO3)s1" please
Solution: Yes

Problem: Entry "O[C@H]1CC[C@@H](Cc2cc(-c3ccc(F)cc3)on2)O[C@@H]1CNC1CCCCC1" please
Solution: Yes

Problem: Entry "O[C@H]1[C@H](NCC2CCCC2)[C@@H](c2ccccc2)C[C@H]1O" please
Solution: No

Problem: Entry CC1(c2ccccc2)N(Cc2ccccc2F)C(=O)OC12CCN(Cc1cccc(O)c1)CC2 (centres unmarked) please
Solution: No

Problem: Entry "Cc1c(O)c(CN2CCCC2)cc2c1oc(=O)c1ccccc12" please
Solution: Yes

Problem: Entry "COc1ccc2cc1Nc1ccc(cc1)C[C@H](NCc1ccc(C)o1)C(=O)N(C)[C@H](C(=O)NCCC(C)C)C2" please
Solution: No

Problem: Entry "CCCn1cc(SCC(=O)NCc2ccco2)c2ccccc21" please
Solution: No

###

# assay-info: in vitro
# condition-description: human, HepG2-A16-CD81EGFP cells, uninfected
Please go through the items and note down their viability at 66 h.
One number for each entry, in %.

Example compounds with recorded viability at 66 h:
INSERT INTO measurements (compound, value_reported) VALUES
  ('CCCc1nnc(NC(=O)c2cn(CC)c3cc(N4CCN(C)CC4)c(F)cc3c2=O)s1 [MLS001049245-01]', 105),
  ('COc1ccc([S+](=O)([O-])Nc2ccc(C)n(CC(=O)Nc3ccccc3)c2=O)cc1 [NCGC00430934-01]', 103),
  ('O=C(Nc1ccc([N+](=O)[O-])cc1)Nc1nc(-c2ccc(Cl)s2)cs1 [MLS000722351-01]', 90);

Hey, can you go through the list below and give me viability at 66 h for every item?
1. CC1CCCCN1S(=O)(=O)c1ccc(C(=O)Nc2ccccc2-c2nc3ccccc3[nH]2)cc1 (centres unmarked) [MLS000697052-01]
2. Cc1ccc(-n2c(C)cc(C(=O)OCC(=O)N(C)C3CCS(=O)(=O)C3)c2C)cc1 (centres unmarked) [MLS000098265-01]

Solution:
1: 104; 2: 101

Hey, can you go through the list below and give me viability at 66 h for every item?
1. CCOC(=O)C1CCN(C(=O)c2c(C)oc3c2C(=O)c2ccccc2C3=O)CC1 [MLS000724686-01]
2. CC(=O)Nc1ccc(NC2=Nc3ccccc3N3C2=Nc2c(c(C)nn2-c2ccccc2)C3c2ccccc2)cc1 (centres unmarked) [MLS000555438-01]
3. CCCc1cc(=O)oc2c(C)c(O)c(CN3CCCCC3)cc12 [MLS000081526-01]
4. COc1ccc(CCn2c(=N)c(C(=O)NC3CCCC3)cc3c(=O)n4cccc(C)c4nc32)cc1 [MLS001147827-01]
5. C=C(C)COc1ccc(-c2n[nH]cc2-c2ccc(OC)c(OC)c2)c(O)c1 [MLS000084580-01]
6. CCc1ccc([S+](=O)([O-])c2nnn3c2nc(Nc2ccc(F)cc2)c2cc(Cl)ccc23)cc1 [NCGC00112284-01]

Solution:
1. 103
2. 95.3
3. 104
4. 94.5
5. 36
6. 105

Hey, can you go through the list below and give me viability at 66 h for every item?
1. CCOc1ccc2nc(C)cc(Nc3cccc([N+](=O)[O-])c3)c2c1 [MLS000663974-01]
2. CCOC(=O)c1cnc(-n2nc(C)cc2C)nc1NC1CCCC1 [MLS000333072-01]
3. COc1cccc(NC(=O)c2ccc(NCCCN3CCC(C)CC3)c([N+](=O)[O-])c2)c1 [MLS000689409-01]
4. COc1cccc(OC)c1C(=O)NC(S)=Nc1ccc2c(c1)C(=O)N(C)C2=O [MLS000331897-01]
5. O=c1c2ccccc2nc(/C=C/c2cc(Br)ccc2O)n1CCCO [MLS001197097-01]
6. CCn1c2c(c(=N)c3ccccc31)CCC2 [MLS001047391-01]

Solution:
102
107
108
103
103
97.3

###

Please go through the items and note down their CC50 at 48 h.
# assay-info: in vitro
# condition-description: human, hepg2; n = 1
Give bare numbers, in µM.

INSERT INTO results (compound, units_of_measure, value_reported) VALUES
  ('C[n+]1c2ccccc2nc2ccc(NCCO)cc21.[O-][Cl+3]([O-])([O-])[O-]', 'µM', 13.7),
  ('COc1ccc(C2C=C(c3ccc(Cl)cc3)Nc3nc(-c4ccc(Cl)cc4)nn32)cc1 (centres unmarked)', 'µM', 15.3),
  ('CCC(C)NC(=O)N1CC(Oc2ccc(-c3noc(C4CCOCC4)n3)cc2)C1 (centres unmarked)', 'µM', 12.2),
  ('c1ccc(-c2cccc(-c3ccccn3)n2)nc1', 'µM', 15.3);

Now for the compound whose CC50 at 48 h we want.
Problem: Which CC50 at 48 h value is on record for "Cc1ccc(Cl)cc1NC(=O)c1cc2ccccc2cc1O" ?
Solution: 21.7

###

# Tested on: HepG2-A16-CD81EGFP cells
# condition-description: HepG2, 1 µM compound treatment (10 mM stocks), replicate 1, normalized, average of 2 wells
Please go through the items and note down their HepG2 1uM growth rep1.
# output: numeric value plus its unit

INSERT INTO assay_data (compound, measured_attribute, value_reported) VALUES
  ('C/C(=N\Nc1nc(-c2ccccc2O)nc2ccccc12)c1ccccc1 [MLS000714167-01]', 'HepG2 1uM growth rep1', '91%'),
  ('COc1ccc([C@@]2(C(C)C)ON(c3ccccc3C(F)(F)F)C2=O)cc1 [MLS002206606-01]', 'HepG2 1uM growth rep1', '102%'),
  ('O=C(Nc1ccc(C2=NCCN2)cc1)c1ccc(C(=O)Nc2ccc(C3=NCCN3)cc2)c(Cl)c1 [MLS000737368-01]', 'HepG2 1uM growth rep1', '102%');

Now for the compound whose HepG2 1uM growth rep1 we want.
Problem: Which HepG2 1uM growth rep1 value is on record for Cc1ccc(Sc2ccc(NC(=O)CCl)cc2)cc1C [MLS000334846-01] ?
Solution: 92%

###

# System: P. falciparum Dd2 Cytb F123L
# assay-info: SYBR Green ABS proliferation assay, NCGC00473217 selected clone G08
# Format: cell-based, Plasmodium falciparum
# condition-description: Plasmodium falciparum, DD2, cytochrome b mutant line, fifth value triple, c15; […]; read-out: log AC50, mean (converted)
measured-attribute: AC50 (µM)
Give bare numbers, in µM.

INSERT INTO measurements (compound, system_tested, value_reported) VALUES
  ('CCCN1C(CC(C)C)=N[S+](=O)([O-])c2cc(NC(=O)c3ccc4c(c3)OCCO4)ccc21 [NCGC00531778-01]', 'P. falciparum Dd2 Cytb F123L', 13.1),
  ('CCCN1C(CC(C)C)=N[S+](=O)([O-])c2cc(NC(=O)c3cccc(OC)c3)ccc21 [NCGC00531773-01]', 'P. falciparum Dd2 Cytb F123L', 10.6),
  ('COc1ccc(-c2nc(C3CC3)nc3c2CCN(S(=O)(=O)c2ccccc2)CC3)cc1 [NCGC00374642-01]', 'P. falciparum Dd2 Cytb F123L', 16.1),
  ('CCCN1C(Cc2ccccc2)=N[S+](=O)([O-])c2cc(NC(=O)c3ccc(F)cc3)ccc21 [NCGC00532338-01]', 'P. falciparum Dd2 Cytb F123L', 0.356),
  ('CCCN1C(CC(C)C)=N[S+](=O)([O-])c2cc(NC(=O)c3c(Cl)cccc3Cl)ccc21 [NCGC00531779-01]', 'P. falciparum Dd2 Cytb F123L', 15.3),
  ('O=C(c1ccc(C(F)(F)F)cc1)N1CCc2nc(C3CC3)nc(-c3ccc(Cl)cc3)c2CC1 [NCGC00476963-01]', 'P. falciparum Dd2 Cytb F123L', 8.41),
  ('COc1ccc(-c2nc(C(C)C)nc3c2CCN(C(=O)Nc2ccccc2)CC3)cc1 [NCGC00479509-01]', 'P. falciparum Dd2 Cytb F123L', 12.3),
  ('CC(C)c1nc2c(c(-c3ccc(O)cc3)n1)CCN(Cc1ccccc1C(F)(F)F)CC2 [NCGC00480324-01]', 'P. falciparum Dd2 Cytb F123L', 4.22);

Now for the compound whose AC50 we want.
Problem: Which AC50 value is on record for Cc1ccccc1C(=O)N1CCc2nc(C3CC3)nc(-c3ccc(O)cc3)c2CC1 [NCGC00480365-01] ?
Solution: 13.8
